- test.summary: Assay C: Hepatocyte clearance
- Assay type: in vitro ADME, human
- run.parameters: hepatocyte suspension, 1 μM compound, 6 h; predicted clearance as % of hepatic blood flow
For each record, write down the corresponding human Hepatocytes [% Qh].
Answers are plain numbers, in % Qh.

Example compounds with recorded human Hepatocytes [% Qh]:
COCCNC(=O)c1cn(Cc2nnn(C[C@H](O)c3ccc(Cl)cc3)n2)c(=O)n(C)c1=O; 25
Cn1ccnc1CNC(=O)c1cn(Cc2nnn(C[C@H](O)c3ccc(Cl)cc3)n2)c(=O)n(C)c1=O; 21
Cn1c(=O)c(C(=O)NCCn2ccnc2)cn(Cc2nnn(C[C@H](O)c3ccc(Cl)cc3)n2)c1=O; 27
CNC(=O)c1cn(Cc2nnn(C[C@H](O)c3ccc(Cl)cc3)n2)c(=O)n(C)c1=O; 17
CN1CCOCC1CNC(=O)c1cn(Cc2nnn(C[C@H](O)c3ccc(Cl)cc3)n2)c(=O)n(C)c1=O (stereo partly drawn); 42

Record human Hepatocytes [% Qh] for all entries; do not skip any.
1. Cn1c(=O)c(C(N)=O)cn(Cc2nnn(C[C@H](O)c3cc4cc(F)ccc4o3)n2)c1=O
2. Cn1c(=O)c(C(N)=O)cn(Cc2nnn(C[C@H](O)c3cc(Cl)c(Cl)s3)n2)c1=O
3. Cn1c(=O)c(C(=O)NCC(F)F)cn(Cc2nnn(C[C@H](O)c3ccc(Cl)cc3)n2)c1=O
4. CCn1c(=O)c(C(N)=O)cn(Cc2nnn(C[C@H](O)c3ccc(Cl)cc3)n2)c1=O
5. Cn1c(=O)c(C(N)=O)cn(Cc2nnn(C[C@H](O)c3cc4ccccc4s3)n2)c1=O
6. Cn1c(=O)c(C(N)=O)cn(Cc2nnn(C[C@H](O)c3cc4ccc(F)cc4s3)n2)c1=O

6
43
15
5
13
27

* * *

- test.system: human TRPA1 ion channel (Homo sapiens, UniProt O75762)
- Sequence (O75762 whole entry): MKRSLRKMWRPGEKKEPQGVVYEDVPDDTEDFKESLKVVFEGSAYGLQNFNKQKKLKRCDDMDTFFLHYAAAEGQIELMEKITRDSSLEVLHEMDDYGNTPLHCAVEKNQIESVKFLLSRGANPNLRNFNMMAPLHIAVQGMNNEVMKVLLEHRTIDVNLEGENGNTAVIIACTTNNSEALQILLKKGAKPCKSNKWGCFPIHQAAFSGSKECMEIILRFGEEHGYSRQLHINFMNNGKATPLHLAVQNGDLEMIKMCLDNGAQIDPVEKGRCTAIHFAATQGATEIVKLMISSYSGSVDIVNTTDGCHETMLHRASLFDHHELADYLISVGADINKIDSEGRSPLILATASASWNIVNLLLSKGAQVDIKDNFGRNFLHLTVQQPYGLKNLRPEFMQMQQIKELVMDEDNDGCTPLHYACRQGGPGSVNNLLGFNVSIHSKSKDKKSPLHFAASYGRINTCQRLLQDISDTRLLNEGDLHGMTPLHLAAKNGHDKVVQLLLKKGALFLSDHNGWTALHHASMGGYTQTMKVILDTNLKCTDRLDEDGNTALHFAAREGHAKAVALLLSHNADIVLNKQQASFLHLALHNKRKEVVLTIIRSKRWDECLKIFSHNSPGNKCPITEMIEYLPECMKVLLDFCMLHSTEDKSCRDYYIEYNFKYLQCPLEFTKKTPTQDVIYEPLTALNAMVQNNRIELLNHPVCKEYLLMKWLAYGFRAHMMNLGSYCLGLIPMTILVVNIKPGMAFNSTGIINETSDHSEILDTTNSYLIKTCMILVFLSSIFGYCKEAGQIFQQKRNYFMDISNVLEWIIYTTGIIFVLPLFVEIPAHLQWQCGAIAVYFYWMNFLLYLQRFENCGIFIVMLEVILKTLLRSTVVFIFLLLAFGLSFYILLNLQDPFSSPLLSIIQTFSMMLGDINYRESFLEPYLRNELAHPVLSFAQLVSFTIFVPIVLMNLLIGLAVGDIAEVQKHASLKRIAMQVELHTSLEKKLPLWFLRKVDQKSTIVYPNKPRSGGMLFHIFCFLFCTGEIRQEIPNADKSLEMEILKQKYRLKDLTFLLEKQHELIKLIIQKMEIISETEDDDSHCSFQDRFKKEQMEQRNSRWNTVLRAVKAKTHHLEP
- test.summary: Assay A: TRPA1 assay (FLIPR, AITC-induced calcium, HEK293 cells)
- run.parameters: read-out: hTRPA1 IC50
For each record, write down the corresponding pIC50.
Give bare numbers, as −log10 of the molar value.

Record pIC50 for all entries; do not skip any.
1. Cn1c(=O)c(C(N)=O)cn(Cc2nnn(C[C@H](O)c3cc4cc(F)ccc4o3)n2)c1=O
2. Cn1c(=O)c(C(=O)NCCn2ccnc2)cn(Cc2nnn(C[C@H](O)c3ccc(Cl)cc3)n2)c1=O
3. Cn1c(=O)c(C(N)=O)cn(Cc2nnn(C[C@H](O)c3cc4cc(Cl)ccc4o3)n2)c1=O
4. Cn1c(=O)c(C(=O)NCCN2CCOCC2)cn(Cc2nnn(C[C@H](O)c3ccc(Cl)cc3)n2)c1=O
5. Cn1c(=O)c(C(N)=O)cn(Cc2nnn(C[C@H](O)c3ccc(Cl)s3)n2)c1=O

[7.23, 6.64, 7.38, 7.41, 7.04]

Record pIC50 for all entries; do not skip any.
1. Cn1c(=O)c(C(N)=O)cn(Cc2nnn(C[C@H](O)c3ccc4c(c3)OCO4)n2)c1=O
2. Cn1c(=O)c(C(N)=O)cn(Cc2nnn(C[C@H](O)c3cc4ccc(F)cc4s3)n2)c1=O
3. Cn1c(=O)c(C(N)=O)cn(Cc2nnn(C[C@H](O)c3cc4ccccc4o3)n2)c1=O
4. Cn1c(=O)c(C(N)=O)cn(Cc2nnn(C[C@H](O)c3cc4ccc(F)cc4o3)n2)c1=O
5. Cn1c(=O)c(C(=O)NCC(F)(F)F)cn(Cc2nnn(C[C@H](O)c3ccc(Cl)cc3)n2)c1=O
6. NC(=O)c1cn(Cc2nnn(C[C@H](O)c3ccc(Cl)cc3)n2)c(=O)n(CC2CC2)c1=O

1: 6.98; 2: 7.74; 3: 7.14; 4: 6.96; 5: 7.17; 6: 7.19

Record pIC50 for all entries; do not skip any.
1. Cn1c(=O)c(C(N)=O)cn(Cc2nnn(C[C@H](O)c3cc(Cl)c(Cl)s3)n2)c1=O
2. Cn1c(=O)c(C(=O)NCC(F)F)cn(Cc2nnn(C[C@H](O)c3ccc(Cl)cc3)n2)c1=O
3. Cn1ccnc1CNC(=O)c1cn(Cc2nnn(C[C@H](O)c3ccc(Cl)cc3)n2)c(=O)n(C)c1=O
4. CNC(=O)c1cn(Cc2nnn(C[C@H](O)c3ccc(Cl)cc3)n2)c(=O)n(C)c1=O
5. COc1ccc([C@@H](O)Cn2nnc(Cn3cc(C(N)=O)c(=O)n(C)c3=O)n2)cc1

7.59
7.41
7.00
6.85
6.80
